- Target Under Test: Ubiquitin carboxyl-terminal hydrolase 1 (Homo sapiens)
- Assay Text: Inhibitors of USP1/UAF1: Pilot qHTS (AID 504865); note: nearly all actives have a fitted effect of over 35% in size
- Setup Conditions: purified USP1/UAF1, Ub-rhodamine cleavage fluorescence; series mostly up to 54.9 µM
Inconclusive results are not listed. Active and inactive are the calls of the source. Calls come from the whole dose curve; as a rule, active = well fitted inhibition curve with a large enough effect; inconclusive = small, poorly fitted or top-dose-only effect; inactive = flat fitted curve, though single readings scatter.
Hello, when you answer, please use one of the following outcomes: class 1 = active, class 0 = inactive

IN: Record request — test call for `O=C(O)/C=C\c1ccc(O)c(O)c1`
OUT: class 0

IN: Please give the result for `COc1ccc2[nH]cc(CCNc3cc(-c4ccc(C(=O)N(C)C)cc4)ncn3)c2c1` too.
OUT: class 0

IN: Please give the result for `CC1(C)O[C@@H]2C[C@H]3[C@H]4C[C@H](F)C5=CC(=O)C=C[C@@]5(C)[C@@H]4[C@H](O)C[C@]3(C)[C@]2(C(=O)CO)O1` too.
OUT: class 0

IN: Please give the result for `c1cn(-c2ccnc(-c3ccc4c(c3)OCO4)n2)cn1` too.
OUT: class 0

IN: Please give the result for `FC(F)(F)c1ccccc1-c1cncnc1NCc1cccnc1` too.
OUT: class 0

IN: Please give the result for `Cc1cnc(CNc2cc(-c3ccccc3C)ncn2)cn1` too.
OUT: class 0

IN: Please give the result for `Cn1c(=O)c(-c2ccc(Cl)cc2)nc2cnc(OCc3ccccc3)nc21` too.
OUT: class 0

IN: Please give the result for `Clc1ccccc1-c1nccc(NCc2ccccc2)n1` too.
OUT: class 1

IN: Please give the result for `Cc1noc(C)c1-c1cncnc1-n1ccnc1` too.
OUT: class 0

IN: Please give the result for `c1nc(NC2CC2)c2cc(-c3ccoc3)ccc2n1` too.
OUT: class 0

IN: Please give the result for `COc1ccccc1-c1cncnc1N(C)Cc1ccco1` too.
OUT: class 0

----------
- System: CP315
- Assay Text: qHTS profiling for inhibitors of Plasmodium falciparum proliferation (AID 504749); note: nearly all actives have a fitted effect of over 60% in size; note: potency is the fitted concentration of half-maximal effect
- Setup Conditions: P. falciparum in erythrocytes, SYBR Green DNA, 72 h; series mostly up to 12.8 µM
Records with an inconclusive call do not appear. Calls of active or inactive are those of the source. Calls follow the shape of the dose curve; as a rule, active = well fitted inhibition curve with a large enough effect; inconclusive = small, poorly fitted or top-dose-only effect; inactive = flat fitted curve, though single readings scatter.
Readout Label: Potency

Known results for compounds:
| Compound | Potency |
| --- | --- |
| CCN(CC)CCC[C@H](C)Nc1c2ccc(Cl)cc2nc2ccc(OC)cc12 | 3010 nM (active) |
| CO/N=C(\C(=O)N[C@@H]1C(=O)N2C(C(=O)O)=C(COC(C)=O)CS[C@@H]12)c1csc(N)n1 | inactive |
| Cc1cc(/C=C\c2ccc3cc(N(C)C)ccc3[n+]2C)c(C)n1-c1ccccc1 | 2030 nM (active) |
| CC(=O)O[C@@H](C)C[N+](C)(C)C | inactive |
| NS(=O)(=O)c1cc([C@@]2(O)NC(=O)c3ccccc32)ccc1Cl | inactive |

IN: Given the entry `CN[C@@H]1[C@H](O[C@@H]2O[C@H](CO)[C@@H](N)[C@H](O)[C@@H]2O)O[C@H]2C[C@@H](N)[C@@H](O[C@H]3[C@@H](O)[C@H](O)[C@H](N)C[C@@H]3N)O[C@H]2[C@H]1O` , what Potency was observed with CP315?
OUT: inactive

IN: Please give the result for `CC[C@]1(C)CC(=O)NC1=O` too.
OUT: inactive

IN: Please give the result for `CCN1C(=O)N[C@@H](c2ccccc2)C1=O` too.
OUT: inactive

IN: Please give the result for `COc1ccccc1OC[C@H](O)COC(N)=O` too.
OUT: inactive

IN: Please give the result for `CN(N=O)C(=O)N[C@H]1[C@@H](O)[C@H](O)[C@H](CO)O[C@@H]1O` too.
OUT: inactive

IN: Please give the result for CN1[C@@H]2CC[C@H]1CC(OC(=O)[C@@H](O)c1ccccc1)C2 (some centres not stated) too.
OUT: inactive

IN: Please give the result for `Cn1c(=O)c2c(ncn2C[C@@H](O)CO)n(C)c1=O` too.
OUT: inactive

IN: Please give the result for `NC(=O)OC[C@H](O)COc1ccc(Cl)cc1` too.
OUT: inactive
